target: PCSK9 (Homo sapiens); experiment: Cell surface LDLR assay with HepG2 cells; format: cell-based; settings: HepG2 cells, 15 μg/mL PCSK9, 4 h, FACS

SUBSTANCE: Ac-TVFTSWEEYLDWVGSGDLMPWNLVRIGLLR-NH2 [Compound 20]
EC50: 1000 to 5000 nM

---

Parameter Kd: see the listing below.
molecular target: PCSK9Δhelix (Homo sapiens, UniProt Q8NBP7); construct: Human PCSK9 construct M1-Q692 with an engineered TEV site (residue deletion Y166, R167); made in house; host or cells: CHO; assay: Surface plasmon resonance biosensor-based affinity analysis (Example 4); assay type: binding; settings: Table 7, Target PCSK9Δhelix, SPR at 20° C.; read-out: Kd
Sequence (Q8NBP7 with tags, fused parts or gaps limits assumed): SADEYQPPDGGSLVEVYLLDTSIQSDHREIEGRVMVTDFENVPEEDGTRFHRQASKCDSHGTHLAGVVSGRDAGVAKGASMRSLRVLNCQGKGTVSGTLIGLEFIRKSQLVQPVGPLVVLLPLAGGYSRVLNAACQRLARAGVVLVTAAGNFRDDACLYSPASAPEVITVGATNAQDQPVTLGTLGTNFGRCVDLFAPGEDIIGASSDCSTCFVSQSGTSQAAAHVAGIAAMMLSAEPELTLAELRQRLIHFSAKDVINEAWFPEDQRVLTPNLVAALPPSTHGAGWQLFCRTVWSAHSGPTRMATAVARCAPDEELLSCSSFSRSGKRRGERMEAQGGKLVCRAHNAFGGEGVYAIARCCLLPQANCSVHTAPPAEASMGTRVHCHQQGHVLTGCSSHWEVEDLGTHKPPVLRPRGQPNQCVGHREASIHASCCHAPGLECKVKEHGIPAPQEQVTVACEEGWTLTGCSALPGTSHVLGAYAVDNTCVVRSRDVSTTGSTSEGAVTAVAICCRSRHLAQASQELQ
Sequence (Q8NBP7 31-152 partner limits assumed): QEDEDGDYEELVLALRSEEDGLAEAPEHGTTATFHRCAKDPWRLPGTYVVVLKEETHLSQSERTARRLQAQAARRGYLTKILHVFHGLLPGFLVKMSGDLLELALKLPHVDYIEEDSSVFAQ
Bridge positions count the residues as written; N and C are the ends. Peptide text beside a SMILES is read from it.

COMPOUND: CC[C@H](C)[C@@H]1NC(=O)[C@H](CCCNC(=N)N)NC(=O)[C@H](CCCCN)NC(=O)[C@H](CC(C)C)NC(=O)[C@H](CC(N)=O)NC(=O)[C@H](Cc2c[nH]c3ccccc23)NC(=O)[C@H](CC(C)C)NC(=O)[C@@H](NC(=O)[C@H](Cc2ccccc2)NC(C)=O)CSSC[C@@H](C(=O)N[C@@H](Cc2c[nH]c3ccccc23)C(=O)N[C@@H](Cc2ccccc2)C(N)=O)NC(=O)[C@H](CCC(N)=O)NC(=O)[C@H](C)NC(=O)CNC1=O [Compound 96] (Ac-FCLWNLKRIGAQCWF-NH2; disulfide 2-13 (inferred))
Kd: 2500 nM

COMPOUND: CC[C@H](C)[C@@H]1NC(=O)[C@H](CCCNC(=N)N)NC(=O)[C@H](CCC(N)=O)NC(=O)[C@H](CC(C)C)NC(=O)[C@H](CC(N)=O)NC(=O)[C@H](Cc2c[nH]c3ccccc23)NC(=O)[C@@H]2CCCN2C(=O)[C@H]([C@@H](C)CC)NC(=O)[C@H](Cc2ccccc2)NC(=O)[C@@H](NC(C)=O)CSSC[C@@H](C(N)=O)NC(=O)[C@H](CC(C)C)NC(=O)[C@H](CC(C)C)NC(=O)CNC1=O [Compound 31] (Ac-CFIPWNLQRIGLLC-NH2; disulfide 1-14)
Kd: 3010 nM

COMPOUND: CC(=O)N[C@H](C(=O)N[C@H](C(=O)N[C@@H](Cc1ccccc1)C(=O)N[C@H](C(=O)N[C@@H](CO)C(=O)N[C@@H](Cc1c[nH]c2cc(F)ccc12)C(=O)N[C@@H](CCC(=O)O)C(=O)N[C@@H](CCC(=O)O)C(=O)N[C@@H](Cc1ccc(O)cc1)C(=O)N[C@@H](CC(C)C)C(=O)N[C@@H](CC(=O)O)C(=O)N[C@@H](Cc1c[nH]c2ccccc12)C(=O)N[C@H](C(N)=O)C(C)C)[C@@H](C)O)C(C)C)[C@@H](C)O [Compound 3, Ac-TVFTS(W6fl)EEYLDWV-NH2]
Kd: 2580 nM

---

biological target: PCSK9Δhelix (Homo sapiens); construct: Human PCSK9 construct M1-Q692 with an engineered TEV site (residue deletion Y166, R167); made in house; host or cells: CHO; assay: PCSK9Δhelix | IC50(uM)
Sequence (Q8NBP7 31-152 limits assumed, stated change not applied): as the sequence (Q8NBP7 31-152 partner limits assumed) above
Sequence (Q8NBP7 153-692 limits assumed, stated change not applied): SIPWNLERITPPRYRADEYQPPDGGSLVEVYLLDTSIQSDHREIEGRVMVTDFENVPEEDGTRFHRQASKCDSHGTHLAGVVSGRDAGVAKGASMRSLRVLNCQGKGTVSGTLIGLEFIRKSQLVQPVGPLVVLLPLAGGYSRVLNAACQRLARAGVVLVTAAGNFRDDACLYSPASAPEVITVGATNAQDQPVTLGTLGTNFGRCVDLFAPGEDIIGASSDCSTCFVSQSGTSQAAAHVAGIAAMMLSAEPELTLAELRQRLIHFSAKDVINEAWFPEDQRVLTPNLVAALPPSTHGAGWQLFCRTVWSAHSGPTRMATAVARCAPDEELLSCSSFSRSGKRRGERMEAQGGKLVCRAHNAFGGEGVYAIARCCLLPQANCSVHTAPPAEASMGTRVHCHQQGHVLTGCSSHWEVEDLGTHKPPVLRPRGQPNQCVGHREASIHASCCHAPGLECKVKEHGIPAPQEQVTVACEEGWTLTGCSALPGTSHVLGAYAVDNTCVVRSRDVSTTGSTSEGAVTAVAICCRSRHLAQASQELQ
pIC50: −log10 of the molar value. Ends that are not written are not given here.

SUBSTANCE: SGGSMPWNLERIFALH-NH2 [Compound K9gvpep8]
pIC50: 5.67
//
SUBSTANCE: SGDLMPWNLVRIGLLR-NH2 [Compound K9gvpep7]
pIC50: 6.04

---

target: PCSK9 (Homo sapiens, UniProt Q8NBP7); assay: PCSK9/EGF(A) TR-FRET binding assay; details: TR-FRET; Table 8E, additional compounds; read-out: PCSK9/EGF(A) IC50
Sequence (Q8NBP7 153-692): as the sequence (Q8NBP7 153-692 limits assumed, stated change not applied) above
Sequence (Q8NBP7 31-152 partner limits assumed): as the sequence (Q8NBP7 31-152 partner limits assumed) above
pIC50: −log10 of the molar value. Square brackets hold non-standard residues; d marks the D form. Peptide text beside a SMILES is read from it. * marks the point of attachment. Butyryl(4-indol-3-yl) = O=C(CCCc1c[nH]c2ccccc12)*; Propanoyl(3-(4-F-phenyl)) = O=C(CCc1ccc(F)cc1)*; Butanoyl(4-OPh) = O=C(CCCOc1ccccc1)*; X17 = O=C([C@H]1C[C@@H]1c1cccnc1)*; hArg = N=C(N)NCCCC[C@H](N)C(=O)O; X24 = CN1CCC(n2cc(C(=O)*)cn2)C1; X3 = O=C(CC1CCN(Cc2ccccn2)CC1)*; X37 = Cc1ccc(C(=O)CCC(=O)*)cc1; X8 = O=C(c1ccc(N2CCOCC2)nc1)*; X27 = O=C(CCCN1CCOCC1)*
Binary call on pIC50: condition met from 5 upward, condition not met beneath that.

MOLECULE: CC[C@H](C)[C@H](NC(=O)[C@H](CCCNC(=N)N)NC(=O)[C@@H](NC(=O)[C@H](CC(C)C)NC(=O)[C@H](CC(N)=O)NC(=O)[C@H](Cc1c[nH]c2ccccc12)NC(=O)CCC(=O)c1ccc(C)cc1)C(C)C)C(=O)NCC(=O)N[C@@H](CC(C)C)C(=O)N[C@H](C(=O)N[C@@H](CCCNC(=N)N)C(N)=O)[C@@H](C)O [Compound 165] (X37-WNLVRIGLTR-NH2)
LABEL_VALUE: condition not met
--
MOLECULE: CC[C@H](C)[C@H](NC(=O)[C@H](CCCCNC(=N)N)NC(=O)[C@@H](NC(=O)[C@H](CC(C)C)NC(=O)[C@H](CC(N)=O)NC(=O)[C@H](Cc1c[nH]c2ccccc12)NC(=O)CCCOc1ccccc1)C(C)C)C(=O)NCC(=O)N[C@@H](CC(C)C)C(=O)N[C@@H](CC(C)C)C(=O)N[C@@H](CCCNC(=N)N)C(N)=O [Compound 209] ({Butanoyl(4-OPh)}-WNLV[hArg]IGLLR-NH2)
LABEL_VALUE: condition met
--
MOLECULE: CC[C@H](C)[C@H](NC(=O)[C@H](CCCNC(=N)N)NC(=O)[C@@H](NC(=O)[C@H](CC(C)C)NC(=O)[C@H](CC(N)=O)NC(=O)[C@H](Cc1c[nH]c2ccccc12)NC(=O)c1ccc(N2CCOCC2)nc1)C(C)C)C(=O)NCC(=O)N[C@@H](CC(C)C)C(=O)N[C@@H](CC(C)C)C(=O)N[C@@H](CCCNC(=N)N)C(N)=O [Compound 134] (X8-WNLVRIGLLR-NH2)
LABEL_VALUE: condition not met
--
MOLECULE: CC[C@H](C)[C@H](NC(=O)[C@H](CCCCNC(=N)N)NC(=O)[C@@H](NC(=O)[C@H](CC(C)C)NC(=O)[C@H](CC(N)=O)NC(=O)[C@H](Cc1c[nH]c2ccccc12)NC(=O)CCCN1CCOCC1)C(C)C)C(=O)NCC(=O)N[C@@H](CC(C)C)C(=O)N[C@@H](CC(C)C)C(=O)N[C@@H](CCCNC(=N)N)C(N)=O [Compound 193] (X27-WNLV[hArg]IGLLR-NH2)
LABEL_VALUE: condition not met
--
MOLECULE: CC[C@H](C)[C@H](NC(=O)[C@H](CCCCNC(=N)N)NC(=O)[C@H](CCCCN)NC(=O)[C@H](CC(C)C)NC(=O)[C@H](CC(N)=O)NC(=O)[C@H](Cc1c[nH]c2ccccc12)NC(=O)CNC(=O)[C@@H]1CCCN1C(=O)[C@H](Cc1ccccc1)NC(=O)[C@H](CO)NC(=O)[C@H](CCC(=O)O)NC(=O)[C@H](CCSC)NC(C)=O)C(=O)NCC(=O)N[C@@H](CC(C)C)C(=O)N[C@@H](CC(C)C)C(=O)N[C@@H](CCCNC(=N)N)C(N)=O [Compound 233] (Ac-MESFPGWNLK[hArg]IGLLR-NH2)
LABEL_VALUE: condition met
--
MOLECULE: CC[C@H](C)[C@H](NC(=O)[C@H](CCCCNC(=N)N)NC(=O)[C@@H](NC(=O)[C@H](CC(C)C)NC(=O)[C@H](CC(N)=O)NC(=O)[C@H](Cc1c[nH]c2ccccc12)NC(=O)CCc1ccc(F)cc1)C(C)C)C(=O)NCC(=O)N[C@@H](CC(C)C)C(=O)N[C@@H](CC(C)C)C(=O)N[C@@H](CCCNC(=N)N)C(N)=O [Compound 198] ({Propanoyl(3-(4-F-phenyl))}-WNLV[hArg]IGLLR-NH2)
LABEL_VALUE: condition met
--
MOLECULE: CC[C@H](C)[C@H](NC(=O)[C@H](CCCNC(=N)N)NC(=O)[C@@H](NC(=O)[C@H](CC(C)C)NC(=O)[C@H](CC(N)=O)NC(=O)[C@H](Cc1c[nH]c2ccccc12)NC(=O)CCCc1c[nH]c2ccccc12)C(C)C)C(=O)NCC(=O)N[C@@H](CC(C)C)C(=O)N[C@H](C(=O)N[C@@H](CCCNC(=N)N)C(N)=O)[C@@H](C)O [Compound 190] ({Butyryl(4-indol-3-yl)}-WNLVRIGLTR-NH2)
LABEL_VALUE: condition not met
--
MOLECULE: CC[C@H](C)[C@H](NC(=O)[C@H](CCCCNC(=N)N)NC(=O)[C@@H](NC(=O)[C@H](CC(C)C)NC(=O)[C@H](CC(N)=O)NC(=O)[C@H](Cc1c[nH]c2ccccc12)NC(=O)[C@H]1C[C@@H]1c1cccnc1)C(C)C)C(=O)NCC(=O)N[C@@H](CC(C)C)C(=O)N[C@@H](CC(C)C)C(=O)N[C@@H](CCCNC(=N)N)C(N)=O [Compound 225] (X17-WNLV[hArg]IGLLR-NH2)
LABEL_VALUE: condition not met
--
MOLECULE: CC[C@H](C)[C@H](NC(=O)[C@H](CCCNC(=N)N)NC(=O)[C@@H](NC(=O)[C@H](CC(C)C)NC(=O)[C@H](CC(N)=O)NC(=O)[C@H](Cc1c[nH]c2ccccc12)NC(=O)c1cnn(C2CCN(C)C2)c1)C(C)C)C(=O)NCC(=O)N[C@@H](CC(C)C)C(=O)N[C@@H](CC(C)C)C(=O)N[C@@H](CCCNC(=N)N)C(N)=O (stereo partly shown) [Compound 129] (X24-WNLVRIGLLR-NH2)
LABEL_VALUE: condition not met
--
MOLECULE: CC[C@H](C)[C@H](NC(=O)[C@H](CCCNC(=N)N)NC(=O)[C@@H](NC(=O)[C@H](CC(C)C)NC(=O)[C@H](CC(N)=O)NC(=O)[C@H](Cc1c[nH]c2ccccc12)NC(=O)CC1CCN(Cc2ccccn2)CC1)C(C)C)C(=O)NCC(=O)N[C@@H](CC(C)C)C(=O)N[C@@H](CC(C)C)C(=O)N[C@@H](CCCNC(=N)N)C(N)=O [Compound 130] (X3-WNLVRIGLLR-NH2)
LABEL_VALUE: condition not met
